System: S. epidermidis
assay-text: microbe, parasite or virus in culture
Type: cell-based, Staphylococcus epidermidis
measurement-setup: after 10-20 passages; inoculum 10^4 cfu/ml
recorded-endpoint: INCREASE IN MIC (fold)
Only the number, expressed in fold, is required.

Req: Dear colleague, I am looking for the recorded INCREASE IN MIC of the following molecule: NC[C@H]1O[C@H](O[C@H]2[C@H](O)[C@@H](O[C@H]3O[C@H](CO)[C@@H](O)[C@H](N)[C@H]3O)[C@H](N)C[C@@H]2N)[C@H](N)C[C@@H]1O [Tobramycin (Tb), tobramycin]
Resp: 20

Req: Dear colleague, I am looking for the recorded INCREASE IN MIC of the following molecule: CCn1cc(C(=O)O)c(=O)c2cc(F)c(N3CCNCC3)cc21 [Norfloxacin (Nf), norfloxacin]
Resp: 40

Req: Dear colleague, I am looking for the recorded INCREASE IN MIC of the following molecule: CN(C)c1ccc(O)c2c1C[C@H]1C[C@H]3[C@H](N(C)C)C(O)=C(C(N)=O)C(=O)[C@@]3(O)C(O)=C1C2=O [Minocycline (M), minocycline]
Resp: 2

Req: Dear colleague, I am looking for the recorded INCREASE IN MIC of the following molecule: Oc1cc(Cl)ccc1Oc1ccc(Cl)cc1Cl [Triclosan (T), triclosan]
Resp: 7
